The measured values listed here are drawn from patent US20180127503A1.

molecular target: T1, human ROR2 expressed on the cell surface (human, UniProt Q01974 34-943); assay: flow cytometry, SKBR3 cells (breast CA); parameters: reference not given here
T1 construct: Endogenous ROR2 of human tumour cell lines; also called cell surface ROR2; ROR2 on tumour cell lines
T1 sequence (Q01974 34-943 limits assumed): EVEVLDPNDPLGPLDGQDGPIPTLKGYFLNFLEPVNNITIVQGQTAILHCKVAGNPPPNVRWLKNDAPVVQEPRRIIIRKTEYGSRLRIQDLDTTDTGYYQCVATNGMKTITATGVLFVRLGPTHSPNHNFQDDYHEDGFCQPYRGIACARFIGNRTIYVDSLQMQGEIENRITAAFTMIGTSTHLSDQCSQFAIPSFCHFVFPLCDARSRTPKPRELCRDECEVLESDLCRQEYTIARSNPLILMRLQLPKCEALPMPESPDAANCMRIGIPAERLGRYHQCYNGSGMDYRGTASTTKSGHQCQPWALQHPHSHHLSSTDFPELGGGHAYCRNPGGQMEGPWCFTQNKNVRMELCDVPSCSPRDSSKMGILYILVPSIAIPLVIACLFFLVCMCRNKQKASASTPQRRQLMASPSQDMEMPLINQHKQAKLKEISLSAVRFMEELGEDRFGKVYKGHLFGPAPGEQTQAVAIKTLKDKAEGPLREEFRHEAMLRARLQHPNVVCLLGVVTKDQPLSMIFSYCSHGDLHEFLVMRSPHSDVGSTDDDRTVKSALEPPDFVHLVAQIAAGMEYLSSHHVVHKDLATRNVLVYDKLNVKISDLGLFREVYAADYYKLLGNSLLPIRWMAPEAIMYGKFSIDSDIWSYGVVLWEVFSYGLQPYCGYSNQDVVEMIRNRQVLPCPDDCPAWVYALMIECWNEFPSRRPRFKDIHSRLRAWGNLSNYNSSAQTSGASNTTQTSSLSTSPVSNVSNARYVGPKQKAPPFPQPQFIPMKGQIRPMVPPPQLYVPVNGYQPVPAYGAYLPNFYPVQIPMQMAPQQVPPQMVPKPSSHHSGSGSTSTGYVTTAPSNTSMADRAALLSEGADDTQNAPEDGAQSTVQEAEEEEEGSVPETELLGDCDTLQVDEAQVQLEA

{"BINDER": "ROR2-240 full length human IgG1 antibody (antibody, V domains shown, also called clone #240 IgG1) VH: QITLKESGPELVKPTQTLTLTCTFSGFSLSTSGMSVSWIRQPPGKALEWLARIDWDDDKYYSTSLKTRLTISKDTSKNQVVLTMTNTDPVDTATYYCARGFYLAYGSYDSWGQGTLVTVSS VL: QSALTQPASVSGSPGQSITISCTGTSGDVGGYNYVSWYQHHPGKAPKLIIYDVNKRPSGFSDRFSGSKSGNTASLTISGLQAEDEADYYCSSYTSTSTVFGGGTKLTVLG", "binding intensity": 5}
{"BINDER": "ROR2-23 full length human IgG1 antibody (antibody, V domains shown, The light chain of clone 023 is labelled kappa; also called clone #23; clone #023 IgG1) VH: EVQLVQSGAEVKKPGESLKISCQGSGYRFSKYWIGWVRQMPGKGLEWMGIIYPGDSDTRYSPSFQGQVTISADKSISTAYLQWSSLKASDTAMYYCARSFSSFIYDYWGQGTLVTVSS VL: ETTLTQSPGTLSVSPGERATLSCRASQSVSSNLAWYQQKRGQAPRLLIYGASTRATGIPVRFSGSGSGTEFTLTISRLEPEDFAVYYCQQYGRSPLTFGGGTKVDIKR", "binding intensity": 48}
